Catalogue of IC50 readings, one per entry.
# target of assay: Voltage-gated inwardly rectifying potassium channel KCNH2 (Homo sapiens, UniProt Q12809)
# Sequence (Q12809 whole entry): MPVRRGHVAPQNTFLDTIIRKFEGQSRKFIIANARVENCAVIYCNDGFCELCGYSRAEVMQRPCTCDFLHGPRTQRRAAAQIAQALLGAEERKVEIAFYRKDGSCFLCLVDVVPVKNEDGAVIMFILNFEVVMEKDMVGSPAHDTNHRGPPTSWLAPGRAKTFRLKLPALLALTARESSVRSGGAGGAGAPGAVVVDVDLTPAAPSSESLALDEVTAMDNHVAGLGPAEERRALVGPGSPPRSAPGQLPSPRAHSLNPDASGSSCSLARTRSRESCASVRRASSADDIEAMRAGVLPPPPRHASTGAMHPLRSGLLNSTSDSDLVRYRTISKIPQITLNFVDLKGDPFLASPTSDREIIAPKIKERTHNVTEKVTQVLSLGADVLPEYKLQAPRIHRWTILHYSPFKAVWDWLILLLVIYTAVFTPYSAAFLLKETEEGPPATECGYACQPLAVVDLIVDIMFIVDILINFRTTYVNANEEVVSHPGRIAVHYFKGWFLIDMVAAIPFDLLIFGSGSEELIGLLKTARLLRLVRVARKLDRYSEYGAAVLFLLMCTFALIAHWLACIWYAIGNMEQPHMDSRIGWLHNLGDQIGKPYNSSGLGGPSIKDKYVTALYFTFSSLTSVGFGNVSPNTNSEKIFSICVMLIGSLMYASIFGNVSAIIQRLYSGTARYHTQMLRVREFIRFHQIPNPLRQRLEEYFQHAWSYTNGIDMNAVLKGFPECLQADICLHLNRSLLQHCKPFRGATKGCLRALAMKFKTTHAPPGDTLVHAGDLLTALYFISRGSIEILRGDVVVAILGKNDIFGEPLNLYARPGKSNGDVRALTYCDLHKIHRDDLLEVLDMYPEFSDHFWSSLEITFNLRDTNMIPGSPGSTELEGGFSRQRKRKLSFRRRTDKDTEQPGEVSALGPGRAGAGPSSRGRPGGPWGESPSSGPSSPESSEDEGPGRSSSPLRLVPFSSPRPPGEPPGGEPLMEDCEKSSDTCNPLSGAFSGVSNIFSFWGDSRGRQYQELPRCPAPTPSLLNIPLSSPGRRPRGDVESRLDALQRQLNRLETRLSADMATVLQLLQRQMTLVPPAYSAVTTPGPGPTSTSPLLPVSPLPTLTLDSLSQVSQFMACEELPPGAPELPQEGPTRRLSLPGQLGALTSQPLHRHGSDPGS

Reference set, count: 2
Cc1nn(-c2ccc(CN)cc2)c(C)c1-c1ccc(F)cc1 : > 30 µM
Cc1nn(-c2ccc3c(c2)CNC3)c(C)c1-c1ccc(F)cc1 : > 30 µM

Here is another compound to look at.
Assay Voltage-gated inwardly rectifying potassium channel KCNH2 (Homo sapiens, UniProt Q12809), sample Cc1nn(-c2ncnc3c2CNC3)c(C)c1-c1ccc(F)cc1 , IC50 read: > 30 µM

---

# assay details: Kinetic solubility of the compound at pH 7.4
# Format: physicochemical
# experimental conditions: buffer, read-out: Kinetic_solubility
measurement kind: solubility kinetic (µg/mL)
Expressed in µg/mL, but write only the number.

Reference set, count: 2
Cc1nn(-c2ccc(CN)cc2)c(C)c1-c1ccc(F)cc1 : 73
Cc1nn(-c2ccc3c(c2)CNC3)c(C)c1-c1ccc(F)cc1 : 56

Summary for this molecule, Cc1nn(-c2ncnc3c2CNC3)c(C)c1-c1ccc(F)cc1 : solubility kinetic is 32

---

# target of assay: Acid-sensing ion channel 2 (Mus musculus, UniProt Q925H0)
# Sequence (Q925H0 whole entry): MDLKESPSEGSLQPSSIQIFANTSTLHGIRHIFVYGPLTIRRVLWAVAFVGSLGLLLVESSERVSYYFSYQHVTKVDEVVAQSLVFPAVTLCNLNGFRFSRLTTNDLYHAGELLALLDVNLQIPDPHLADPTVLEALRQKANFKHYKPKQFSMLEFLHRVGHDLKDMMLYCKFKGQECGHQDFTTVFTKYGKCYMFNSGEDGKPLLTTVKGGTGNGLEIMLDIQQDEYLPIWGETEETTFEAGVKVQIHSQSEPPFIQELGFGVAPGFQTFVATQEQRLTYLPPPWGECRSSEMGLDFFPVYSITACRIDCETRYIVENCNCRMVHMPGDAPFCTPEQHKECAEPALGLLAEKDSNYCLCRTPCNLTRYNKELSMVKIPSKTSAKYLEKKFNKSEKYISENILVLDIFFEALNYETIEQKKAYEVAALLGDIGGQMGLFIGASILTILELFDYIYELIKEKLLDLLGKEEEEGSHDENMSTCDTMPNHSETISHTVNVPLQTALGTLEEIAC
# assay details: Inhibition of pH 5.5-stimulated mouse ASIC2a homomer expressed in CHOK1 cells assessed as reduction in channel activation by VSD fluorescence assay
measurement kind: pIC50
# pIC50 is unitless: minus log10 of the molar concentration; print number only

N=C(N)c1ccc(/N=N/Nc2ccc(C(=N)N)cc2)cc1 : 3.77
COc1ccc(-c2c(C)nn(-c3ccc(CN)cc3)c2C)cc1 : 4.79
Cc1nn(-c2ccc(C(C)N)cc2)c(C)c1-c1ccc(F)cc1 (stereo not given) : 5.06
Cc1nn(-c2ccc(CN)cc2)c(C)c1-c1ccc(F)cc1 : 4.72
Cc1nn(Cc2ccc(CN)cc2)c(C)c1-c1ccc(F)cc1 : 4.77
Cc1nn(-c2cccc(CN)c2)c(C)c1-c1ccc(F)cc1 : 4.81
Cc1nn(-c2ccc3c(c2)CNC3)c(C)c1-c1cccc(F)c1 : 5.00
Cc1ccc(-c2c(C)nn(-c3ccc(CN)cc3)c2C)cc1 : 5.06
Cc1nn(-c2ccc(CN)cn2)c(C)c1-c1ccc(F)cc1 : 5.21
Cc1nn(-c2ccc3c(c2)CNC3)c(C)c1-c1ccc(F)cc1 : 5.09

Summary for this compound, Cc1nn(-c2ncnc3c2CNC3)c(C)c1-c1ccc(F)cc1 : pIC50 is 4.77

Summary for this compound, Cc1nn(-c2ccc(CN)cc2)c(C)c1-c1cccc(F)c1 : pIC50 is 5.37

Summary for this compound, Cc1nn(-c2ccc(CCN)cc2)c(C)c1-c1ccc(F)cc1 : pIC50 is 4.93

---

# assay details: Clearance in NMRI mouse at 1 mg/kg, iv by LC-MS/MS analysis
# Assay type: ADME, organism-based
# experimental conditions: in vivo
Catalogue of clearance readings, one per entry.
Expressed in mL/min/kg, but write only the number.

Cc1nn(-c2ccc(CN)cc2)c(C)c1-c1ccc(F)cc1 : 224

Here is another compound to look at.
Summary for this compound, Cc1nn(-c2ncnc3c2CNC3)c(C)c1-c1ccc(F)cc1 : clearance is 34

---

# assay details: Ratio of drug level in brain to plasma of NMRI mouse at 1 mg/kg, iv measured after 2 to 8 hrs post dose
# Assay type: ADME, organism-based
# experimental conditions: read-out: BPR
Catalogue of Kp readings, one per entry.
API note: the answer field is a bare number with no unit suffix.

Cc1nn(-c2ncnc3c2CNC3)c(C)c1-c1ccc(F)cc1 : 1.3

Here is another compound to look at.
Summary for this compound, Cc1nn(-c2ccc(CN)cc2)c(C)c1-c1ccc(F)cc1 : Kp is 61

---

# target of assay: Acid-sensing ion channel 1 (Mus musculus, UniProt Q6NXK8)
# Sequence (Q6NXK8 whole entry): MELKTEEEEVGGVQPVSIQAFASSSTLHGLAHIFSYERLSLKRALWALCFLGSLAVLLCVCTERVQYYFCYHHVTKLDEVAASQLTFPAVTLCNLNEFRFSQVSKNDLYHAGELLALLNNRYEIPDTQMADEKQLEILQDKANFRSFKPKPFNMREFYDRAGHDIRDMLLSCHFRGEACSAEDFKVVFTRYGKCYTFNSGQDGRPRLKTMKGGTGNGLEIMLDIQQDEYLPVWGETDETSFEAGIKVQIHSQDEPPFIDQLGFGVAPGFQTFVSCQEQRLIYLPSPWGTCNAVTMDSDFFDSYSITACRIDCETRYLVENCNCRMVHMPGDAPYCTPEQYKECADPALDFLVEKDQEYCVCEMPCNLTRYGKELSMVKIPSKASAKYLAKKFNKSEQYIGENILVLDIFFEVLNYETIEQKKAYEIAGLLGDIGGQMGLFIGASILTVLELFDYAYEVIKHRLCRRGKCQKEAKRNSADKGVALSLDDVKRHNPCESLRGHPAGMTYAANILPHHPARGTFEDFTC
# assay details: Inhibition of pH 6.6-stimulated mouse ASIC1a homomer expressed in CHOK1 cells assessed as reduction in channel activation by VSD fluorescence assay
pIC50: −log10 of the molar value.
Catalogue of pIC50 readings, one per entry.

NCc1ccc(-n2cc(-c3ccc(F)cc3)cn2)cc1 : < 4.52
Cc1nn(-c2ncnc3c2CN(C)C3)c(C)c1-c1cccc(F)c1 : < 4.52
Cc1nn(-c2ccc(CN)cc2)c(C)c1-c1ccc(F)cc1 : < 4.52
Cc1nn(-c2ccc3c(c2)CNC3)c(C)c1-c1cccc(F)c1 : < 4.52

Summary for this compound, Cc1nn(-c2ccc(C(C)N)cc2)c(C)c1-c1ccc(F)cc1 (stereo unspecified) : pIC50 is < 4.52

Summary for this compound, Cc1nn(-c2ccc(CN)cn2)c(C)c1-c1ccc(F)cc1 : pIC50 is < 4.52

---

Catalogue of Cmax readings, one per entry.
# assay details: Cmax in NMRI mouse at 3 mg/kg, po by LC-MS/MS analysis
# Assay type: ADME, organism-based
# Parameters: dose 3 mg/kg, route oral
# experimental conditions: in vivo
Expressed in nM, but write only the number.

Cc1nn(-c2ncnc3c2CNC3)c(C)c1-c1ccc(F)cc1 : 2600

Here is another compound to look at.
Summary for this compound, Cc1nn(-c2ccc(CN)cc2)c(C)c1-c1ccc(F)cc1 : Cmax is 90

---

# assay details: Volume of distribution in NMRI mouse at 1 mg/kg, iv by LC-MS/MS analysis
# Assay type: ADME, organism-based
# experimental conditions: in vivo
measurement kind: Vd (L/kg)
Expressed in L/kg, but write only the number.

Cc1nn(-c2ncnc3c2CNC3)c(C)c1-c1ccc(F)cc1 : 1.4

Summary for this compound, Cc1nn(-c2ccc(CN)cc2)c(C)c1-c1ccc(F)cc1 : Vd is 50.9

---

# target of assay: UniProt P02768
# Sequence (P02768 whole entry): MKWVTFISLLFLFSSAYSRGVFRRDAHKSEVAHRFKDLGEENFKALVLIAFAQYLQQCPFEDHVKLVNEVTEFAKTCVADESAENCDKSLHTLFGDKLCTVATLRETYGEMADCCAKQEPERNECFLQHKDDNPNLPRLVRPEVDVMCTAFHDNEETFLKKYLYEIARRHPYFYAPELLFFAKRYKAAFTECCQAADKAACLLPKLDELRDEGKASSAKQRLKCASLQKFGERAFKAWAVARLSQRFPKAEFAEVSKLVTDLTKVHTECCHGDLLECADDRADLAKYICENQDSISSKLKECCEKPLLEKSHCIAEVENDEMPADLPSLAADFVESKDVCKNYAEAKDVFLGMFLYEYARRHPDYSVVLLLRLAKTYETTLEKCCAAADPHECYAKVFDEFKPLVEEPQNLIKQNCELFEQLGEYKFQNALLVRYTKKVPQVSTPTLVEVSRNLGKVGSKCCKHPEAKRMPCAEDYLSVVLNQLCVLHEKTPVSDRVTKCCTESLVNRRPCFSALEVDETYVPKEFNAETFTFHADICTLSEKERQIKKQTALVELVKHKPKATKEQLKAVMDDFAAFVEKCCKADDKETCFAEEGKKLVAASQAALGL
# assay details: Binding affinity to human serum albumin by NMR-based analysis
# Assay type: ADME
# experimental conditions: read-out: PPB (converted)
measurement kind: fraction unbound
API note: the answer field is a bare number with no unit suffix.

Reference set, count: 2
Cc1nn(-c2ccc3c(c2)CNC3)c(C)c1-c1ccc(F)cc1 : 0.05
Cc1nn(-c2ccc(CN)cc2)c(C)c1-c1ccc(F)cc1 : 0.07

Here is another compound to look at.
Summary for this compound, Cc1nn(-c2ncnc3c2CNC3)c(C)c1-c1ccc(F)cc1 : fraction unbound is 0.06
